- assayTarget: Peroxisome proliferator-activated receptor gamma/Nuclear receptor coactivator 2 (Homo sapiens, UniProt P37231)
- Sequence (P37231 whole entry): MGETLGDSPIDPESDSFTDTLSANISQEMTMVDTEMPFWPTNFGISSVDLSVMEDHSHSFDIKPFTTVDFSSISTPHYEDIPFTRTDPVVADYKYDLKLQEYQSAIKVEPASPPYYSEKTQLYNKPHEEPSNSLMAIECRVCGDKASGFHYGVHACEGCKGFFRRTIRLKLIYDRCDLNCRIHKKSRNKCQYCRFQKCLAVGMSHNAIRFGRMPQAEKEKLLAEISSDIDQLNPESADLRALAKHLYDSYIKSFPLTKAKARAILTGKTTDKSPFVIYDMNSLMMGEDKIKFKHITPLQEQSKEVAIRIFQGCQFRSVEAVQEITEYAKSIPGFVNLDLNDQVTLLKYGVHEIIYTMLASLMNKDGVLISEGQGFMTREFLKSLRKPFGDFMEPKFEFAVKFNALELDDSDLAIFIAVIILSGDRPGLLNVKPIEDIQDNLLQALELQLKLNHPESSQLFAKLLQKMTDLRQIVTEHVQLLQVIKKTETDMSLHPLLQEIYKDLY
- Sequence (Q15596 whole entry, further chain): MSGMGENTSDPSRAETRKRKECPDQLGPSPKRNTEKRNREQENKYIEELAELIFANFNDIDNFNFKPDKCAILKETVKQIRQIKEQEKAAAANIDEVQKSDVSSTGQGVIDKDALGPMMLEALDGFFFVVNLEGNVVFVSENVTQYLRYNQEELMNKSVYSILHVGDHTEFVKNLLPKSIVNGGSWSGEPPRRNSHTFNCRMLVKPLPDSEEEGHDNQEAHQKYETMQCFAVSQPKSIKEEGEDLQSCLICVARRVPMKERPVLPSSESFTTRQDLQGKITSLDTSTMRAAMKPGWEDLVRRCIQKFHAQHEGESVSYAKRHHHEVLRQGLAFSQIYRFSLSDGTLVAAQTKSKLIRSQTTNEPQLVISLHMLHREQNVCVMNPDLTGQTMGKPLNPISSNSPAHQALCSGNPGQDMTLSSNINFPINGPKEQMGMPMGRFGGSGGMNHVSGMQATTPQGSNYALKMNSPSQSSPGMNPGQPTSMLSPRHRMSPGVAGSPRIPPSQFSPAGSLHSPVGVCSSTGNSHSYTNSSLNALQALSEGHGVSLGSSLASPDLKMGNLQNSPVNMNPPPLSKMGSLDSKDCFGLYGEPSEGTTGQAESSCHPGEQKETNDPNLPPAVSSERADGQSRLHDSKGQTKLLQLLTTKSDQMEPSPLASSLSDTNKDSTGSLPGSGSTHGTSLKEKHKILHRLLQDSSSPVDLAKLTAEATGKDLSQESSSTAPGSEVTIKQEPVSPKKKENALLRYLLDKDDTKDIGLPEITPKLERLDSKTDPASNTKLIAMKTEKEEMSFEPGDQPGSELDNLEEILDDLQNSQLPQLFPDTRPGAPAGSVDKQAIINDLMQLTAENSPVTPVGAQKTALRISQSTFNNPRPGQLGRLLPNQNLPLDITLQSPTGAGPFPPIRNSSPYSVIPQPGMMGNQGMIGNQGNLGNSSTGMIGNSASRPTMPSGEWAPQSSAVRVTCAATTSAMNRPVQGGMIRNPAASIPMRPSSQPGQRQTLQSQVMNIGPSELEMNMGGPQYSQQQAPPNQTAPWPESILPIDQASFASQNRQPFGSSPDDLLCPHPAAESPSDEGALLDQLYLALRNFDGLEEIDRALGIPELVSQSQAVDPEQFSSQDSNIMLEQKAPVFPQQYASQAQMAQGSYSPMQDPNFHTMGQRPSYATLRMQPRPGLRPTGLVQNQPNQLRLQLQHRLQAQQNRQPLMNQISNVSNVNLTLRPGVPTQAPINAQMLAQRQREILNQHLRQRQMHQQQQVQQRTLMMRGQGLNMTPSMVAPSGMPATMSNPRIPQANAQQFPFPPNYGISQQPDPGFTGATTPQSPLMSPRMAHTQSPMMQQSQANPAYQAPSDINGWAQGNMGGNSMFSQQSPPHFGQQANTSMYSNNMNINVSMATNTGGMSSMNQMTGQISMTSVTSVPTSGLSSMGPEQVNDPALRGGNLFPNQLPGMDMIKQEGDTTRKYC
- protocolText: TR-FRET dose response biochemical High Throughput Screening assay for agonists of the steroid receptor coactivator 2 (SRC-2) recruitment by the peroxisome proliferator-activated receptor gamma (PPAR gamma): non-selective agonists. [Related pubchem assays: 1297, 1032 ]
- Format: functional
The source made the active and inactive calls. Cut-off read from the data, not from the text of the source: active = EC50 of 10 µM or less and inactive = more.
Could you please report measured EC50 for the items listed next?

Sample records with EC50:
>  <molecule>
CCCC1O[C@@H]2CC3C4CCC5=CC(=O)C=C[C@]5(C)C4C(OC(C)=O)C[C@]3(C)[C@]2(C(=O)COC(C)=O)O1 (some centres undefined)

>  <EC50>
8.71 µM (active)

$$$$
>  <molecule>
CCOC(=O)N1CCC(NC(=O)CSc2cc(=O)n(C)c3ccccc23)CC1

>  <EC50>
> 79.4 µM (not active)

$$$$
>  <molecule>
COc1ccc(OC)c(C2C(C(=O)c3cc4ccccc4o3)=C(O)C(=O)N2c2cc(C)on2)c1 (centres undefined)

>  <EC50>
36 µM (not active)

$$$$

Can you share its EC50? I mean this molecule: Cn1c(=O)cc(SCC(=O)N2CCN(Cc3ccc4c(c3)OCO4)CC2)c2ccccc21
> 79.4 µM (not active)
